target: T1, human chemokine (C-C motif) receptor 8 (CCR8) (human, UniProt P51685 1-355); test: flow cytometry blocking, human PBMC, CD3+ gate; competitor PE-AB12
T1 construct: also called hCCR8
T1 sequence (P51685 whole entry): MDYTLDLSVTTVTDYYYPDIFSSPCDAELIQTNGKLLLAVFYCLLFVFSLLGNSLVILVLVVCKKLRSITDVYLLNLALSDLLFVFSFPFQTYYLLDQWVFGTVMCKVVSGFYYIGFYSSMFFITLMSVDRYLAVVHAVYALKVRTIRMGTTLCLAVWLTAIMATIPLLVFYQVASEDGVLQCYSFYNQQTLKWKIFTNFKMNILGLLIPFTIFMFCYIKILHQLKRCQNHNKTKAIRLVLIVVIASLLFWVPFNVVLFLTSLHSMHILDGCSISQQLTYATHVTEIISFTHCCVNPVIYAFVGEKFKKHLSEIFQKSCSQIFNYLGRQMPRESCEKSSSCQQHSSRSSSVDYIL
propertyName: % Blocking (%)

>  <binder>
anti-CCR8 monoclonal antibody AB8 (antibody, V domains shown, Hybridoma monoclonal; also called antibody 8; clone 8) VH: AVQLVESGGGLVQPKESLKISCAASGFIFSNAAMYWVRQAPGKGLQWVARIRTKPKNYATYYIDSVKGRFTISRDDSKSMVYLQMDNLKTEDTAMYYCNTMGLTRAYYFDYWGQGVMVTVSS VL: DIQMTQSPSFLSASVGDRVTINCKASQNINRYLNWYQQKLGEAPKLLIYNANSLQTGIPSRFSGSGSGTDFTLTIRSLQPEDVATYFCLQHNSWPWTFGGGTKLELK

>  <propertyName>
% Blocking

>  <dataValue>
99.3

$$$$
>  <binder>
anti-CCR8 monoclonal antibody AB7 (antibody, V domains shown, Hybridoma monoclonal; also called antibody 7; clone 7) VH: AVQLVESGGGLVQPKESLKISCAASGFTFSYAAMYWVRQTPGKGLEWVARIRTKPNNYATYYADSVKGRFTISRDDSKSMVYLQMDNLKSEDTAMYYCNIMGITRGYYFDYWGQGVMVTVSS VL: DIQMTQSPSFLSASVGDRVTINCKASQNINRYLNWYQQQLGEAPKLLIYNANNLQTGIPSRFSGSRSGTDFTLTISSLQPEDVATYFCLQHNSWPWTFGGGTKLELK

>  <propertyName>
% Blocking

>  <dataValue>
99.3

$$$$
>  <binder>
anti-CCR8 monoclonal antibody AB11 (antibody, V domains shown, Hybridoma monoclonal; also called antibody 11; clone 11) VH: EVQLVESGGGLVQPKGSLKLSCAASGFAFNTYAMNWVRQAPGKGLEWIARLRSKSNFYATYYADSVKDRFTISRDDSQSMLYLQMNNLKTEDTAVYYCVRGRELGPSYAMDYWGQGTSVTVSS VL: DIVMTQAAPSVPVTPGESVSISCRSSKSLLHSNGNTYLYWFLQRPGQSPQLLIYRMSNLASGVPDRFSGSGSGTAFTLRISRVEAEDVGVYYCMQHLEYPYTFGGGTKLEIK

>  <propertyName>
% Blocking

>  <dataValue>
97.7

$$$$

Source listed as patent US20240360228A1.
